tested system: human IL-21R expressed on cells (human, UniProt Q9HBE5 20-538)
Sequence (Q9HBE5 20-538 limits assumed): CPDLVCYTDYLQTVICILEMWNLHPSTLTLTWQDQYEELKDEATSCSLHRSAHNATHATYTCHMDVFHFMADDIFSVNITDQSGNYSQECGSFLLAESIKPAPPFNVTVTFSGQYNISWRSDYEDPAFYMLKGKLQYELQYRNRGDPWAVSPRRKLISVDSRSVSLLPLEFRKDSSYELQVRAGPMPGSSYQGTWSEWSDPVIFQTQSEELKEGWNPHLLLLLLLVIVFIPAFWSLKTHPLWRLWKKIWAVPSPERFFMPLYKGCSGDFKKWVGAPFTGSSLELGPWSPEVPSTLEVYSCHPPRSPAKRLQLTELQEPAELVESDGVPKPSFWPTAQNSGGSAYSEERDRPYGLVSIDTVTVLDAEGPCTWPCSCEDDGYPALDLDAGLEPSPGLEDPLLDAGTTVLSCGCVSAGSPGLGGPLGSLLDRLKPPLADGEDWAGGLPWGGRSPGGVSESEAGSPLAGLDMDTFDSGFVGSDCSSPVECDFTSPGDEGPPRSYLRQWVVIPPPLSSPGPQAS
method notes: cell-based or functional assay
Entries and their measured Neutralization of T cell Proliferation IC50 (nM), human primary CD4+ T cells follow.
Value expressed in nM; do not type the unit.

Study these solved cases before continuing.
{"columns": ["binder", "numeric result"],
 "data": [
  ["AbT (antibody, human IgG1, V domains shown, Human IgG1 triple-mutant (L234A, L235A, G237A); Framework limits derived; also called VHP/VL9; VHPTM/VL9) VH: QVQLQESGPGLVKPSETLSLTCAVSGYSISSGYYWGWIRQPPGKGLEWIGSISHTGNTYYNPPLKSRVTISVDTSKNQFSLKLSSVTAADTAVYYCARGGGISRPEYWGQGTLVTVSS VL: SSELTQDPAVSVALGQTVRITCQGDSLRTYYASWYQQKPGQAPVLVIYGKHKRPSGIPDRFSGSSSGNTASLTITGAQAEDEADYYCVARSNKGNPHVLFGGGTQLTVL", 0.03],
  ["AbS (antibody, human IgG1, V domains shown, Human IgG1 triple-mutant (L234A, L235A, G237A); Framework limits derived; also called VHP/VL6; VHPTM/VL6) VH: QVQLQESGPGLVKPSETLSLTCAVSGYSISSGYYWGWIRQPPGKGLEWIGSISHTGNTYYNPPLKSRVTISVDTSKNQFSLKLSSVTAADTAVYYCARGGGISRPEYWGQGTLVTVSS VL: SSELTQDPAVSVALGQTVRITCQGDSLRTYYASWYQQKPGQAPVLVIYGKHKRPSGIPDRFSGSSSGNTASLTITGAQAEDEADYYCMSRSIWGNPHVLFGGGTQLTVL", 0.06],
  ["AbR (antibody, human IgG1, V domains shown, Purified form: human IgG1 double-mutant (L234A, G237A); Framework limits derived; also called VH3/VL18; VH3DM/VL18) VH: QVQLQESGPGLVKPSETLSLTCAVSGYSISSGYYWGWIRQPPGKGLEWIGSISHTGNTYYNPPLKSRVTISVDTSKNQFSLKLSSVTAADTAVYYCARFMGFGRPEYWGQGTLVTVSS VL: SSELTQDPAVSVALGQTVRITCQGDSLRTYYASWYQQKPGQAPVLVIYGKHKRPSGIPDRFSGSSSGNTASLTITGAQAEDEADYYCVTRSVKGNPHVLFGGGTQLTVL", 0.04],
  ["AbO (antibody, human IgG1, V domains shown, Human IgG1 triple-mutant (L234A, L235A, G237A); Framework limits derived; also called VHP/VL16; VHPTM/VL16) VH: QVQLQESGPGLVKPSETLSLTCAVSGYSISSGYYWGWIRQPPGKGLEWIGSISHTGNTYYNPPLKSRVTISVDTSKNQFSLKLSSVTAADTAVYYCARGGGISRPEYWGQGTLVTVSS VL: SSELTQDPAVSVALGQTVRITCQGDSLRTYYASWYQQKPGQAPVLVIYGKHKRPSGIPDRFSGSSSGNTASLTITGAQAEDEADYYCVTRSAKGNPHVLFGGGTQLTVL", 0.06]
]}

Record AbP (antibody, human IgG1, V domains shown, Human IgG1 triple-mutant (L234A, L235A, G237A); Framework limits derived; also called VHP/VL20; VHPTM/VL20) VH: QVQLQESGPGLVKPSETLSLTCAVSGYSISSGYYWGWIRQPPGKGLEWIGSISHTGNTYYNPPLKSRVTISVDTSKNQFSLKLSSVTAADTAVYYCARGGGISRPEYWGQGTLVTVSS VL: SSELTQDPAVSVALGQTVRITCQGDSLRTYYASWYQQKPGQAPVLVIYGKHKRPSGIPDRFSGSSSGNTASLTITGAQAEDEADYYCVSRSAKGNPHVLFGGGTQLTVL , field Neutralization of T cell Proliferation IC50 (nM), human primary CD4+ T cells: 0.02
